- System: A549
- test_protocol: Cytotoxicity against human A549 cells after 48 hrs by MTT assay
- Format: functional, cell-based
- measurement_context: A549, 48 h
outcome_measure: IC50 (µM)
Numbers only, in µM.

>  <line_notation>
COc1cc2c(cc1OC)CN(S(=O)(=O)c1ccc(-n3cc(CO)nn3)cc1)CC2

>  <study_system>
A549

>  <IC50 [µM]>
41

$$$$

Respectfully, I request IC50 for each entry included below.
1. O=c1cc(OCc2cn(-c3ccc(S(=O)(=O)N4CCc5ccccc5C4)cc3)nn2)c2ccccc2o1
2. COC(=O)c1ccccc1OCc1cn(-c2ccc(S(=O)(=O)N3CCc4ccccc4C3)cc2)nn1
3. COc1cc2c(cc1OC)CN(S(=O)(=O)c1ccc(-n3cc(COc4ccc(C=O)cc4)nn3)cc1)CC2
4. COc1cc2c(cc1OC)CN(S(=O)(=O)c1ccc(-n3cc(COc4ccccc4C)nn3)cc1)CC2

Solution:
1. 25.3
2. 0.57
3. 31.8
4. 27.2
